Biological target: T1, Orencia
T1 sequence (chain, INN chains, looked up, looked up): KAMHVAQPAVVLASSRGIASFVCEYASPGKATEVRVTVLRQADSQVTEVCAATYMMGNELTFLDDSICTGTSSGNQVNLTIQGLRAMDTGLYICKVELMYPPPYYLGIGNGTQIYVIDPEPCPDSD
Assay: ELISA, MBP fusion in E. coli lysate on Orencia
Classify by measured ELISA A450: Yes if it is equal to or exceeds 0.6, No if it is smaller.

* GGCMHPFLRVVSHHFCGR (peptide, not shown: large carriers; small tags and cut ends, MBP fusion; also called #33) [C4-302mat-3-1-14] | Yes
* GGCMHPFLPVVSRHFCGG (peptide, not shown: large carriers; small tags and cut ends, MBP fusion; also called #24) [C4-302mat-3-1-5] | No
* GGCMHPFLKIASHHFCGG (peptide, not shown: large carriers; small tags and cut ends, MBP fusion; also called #36) [C4-302mat-3-1-8] | No
* GSCMHPFLLVASHHFCRG (peptide, not shown: large carriers; small tags and cut ends, MBP fusion; also called #38) [C4-302mat-2-100-33] | No
* GGCRHPFLPIVSRHFCRG (peptide, not shown: large carriers; small tags and cut ends, MBP fusion; also called #11) [C4-302mat-3-1-45] | Yes
* GGCMHPYLLVVSRHFCGR (peptide, not shown: large carriers; small tags and cut ends, MBP fusion; also called #41) [C4-302mat-3-1-15] | No
* GGCMHPFLQTVSHHFCGG (peptide, not shown: large carriers; small tags and cut ends, MBP fusion; also called #22) [C4-302mat-3-1-35] | No
* GDCKHPYLLTVSHHFCGR (peptide, not shown: large carriers; small tags and cut ends, MBP fusion; also called #42) [C4-302mat-3-1-25] | No
* GGCMHPFLPVVSRHFCGR (peptide, not shown: large carriers; small tags and cut ends, MBP fusion; also called #25) [C4-302mat-3-1-12] | Yes
* GSCMHPFLPVASRHFCGR (peptide, not shown: large carriers; small tags and cut ends, MBP fusion; also called #23) [C4-302mat-3-1-31] | Yes
* GGCMHPFLQVVSHHFCGS (peptide, not shown: large carriers; small tags and cut ends, MBP fusion; also called #26) [C4-302mat-2-1-35] | Yes
* GGCLHPFLPVVSHHFCGD (peptide, not shown: large carriers; small tags and cut ends, MBP fusion; also called #8) [C4-302mat-2-1-2] | Yes
* GGCKHPFLLIVSHHFCGR (peptide, not shown: large carriers; small tags and cut ends, MBP fusion; also called #45) [C4-302mat-3-100-39] | No
* GGCMHPFLLVVSHHFCGG (peptide, not shown: large carriers; small tags and cut ends, MBP fusion; also called original clone; Original) [H12SSI-Ctla4-3-02 (MBP fusion)] | No
* GGCMHPYLLVVSHHFCGR (peptide, not shown: large carriers; small tags and cut ends, MBP fusion; also called #40) [C4-302mat-2-100-24] | No
